B1: MBP–Hrp1p NLS [S. cerevisiae] / Kap104p [yeast (S. cerevisiae)] (parent)
chain 1: RDRNDRDRDYNHRSGGNHRRNGRGGRGGYNRRNNGYHPYNR
chain 2: MASTWKPAEDYVLQLATLLQNCMSPNPEIRNNAMEAMENFQLQPEFLNYLCYILIEGESDDVLKQHYSLQDLQNNRATAGMLLKNSMLGGNNLIKSNSHDLGYVKSNIIHGLYNSNNNLVSNVTGIVITTLFSTYYRQHRDDPTGLQMLYQLLELTSNGNEPSIKALSKIMEDSAQFFQLEWSGNTKPMEALLDSFFRFISNPNFSPVIRSESVKCINTVIPLQTQSFIVRLDKFLEIIFQLAQNDENDLVRAQICISFSFLLEFRPDKLVSHLDGIVQFMLHLITTVNEEKVAIEACEFLHAFATSPNIPEHILQPYVKDIVPILLSKMVYNEESIVLLEASNDDDAFLEDKDEDIKPIAPRIVKKKEAGNGEDADDNEDDDDDDDDEDGDVDTQWNLRKCSAATLDVMTNILPHQVMDIAFPFLREHLGSDRWFIREATILALGAMAEGGMKYFNDGLPALIPFLVEQLNDKWAPVRKMTCWTLSRFSPWILQDHTEFLIPVLEPIINTLMDKKKDVQEAAISSVAVFIENADSELVETLFYSQLLTSFDKCLKYYKKKNLIILYDAIGRFAEKCALDETAMQIILPPLIEKWALLSDSDKELWPLLECLSCVASSLGERFMPMAPEVYNRAFRILCHCVELEAKSHQDPTIVVPEKDFIITSLDLIDGLVQGLGAHSQDLLFPQGTKDLTILKIMLECLQDPVHEVRQSCFALLGDIVYFFNSELVIGNLEDFLKLIGTEIMHNDDSDGTPAVINAIWALGLISERIDLNTYIIDMSRIILDLFTTNTQIVDSSVMENLSVTIGKMGLTHPEVFSSGAFANDSNWNKWCLSVNALDDVEEKSSAYMGFLKIINLTSTEVTMSNDTIHKIVTGLSSNVEANVFAQEIYTFLMNHSAQISAINFTPDEISFLQQFTS

- Variants of: B1
- test summary: ITC
- condition set: with Kap104p [yeast (S. cerevisiae)]; parent: 32 nM
Please respond with reported Kd for every item in the list.
Reply with just the number (in nM).

# input Param item = chain 1 R19A R20A R23A R26A ; retrieve measured Kd.
# output 194

# input Param item = chain 1 R19A Y36A ; retrieve measured Kd.
# output 60

# input Param item = chain 1 Y36A ; retrieve measured Kd.
# output 143

# input Param item = chain 1 R19K R20K R23K R26K ; retrieve measured Kd.
# output 36
